ASSAYED TARGET: T1, bovine LHRH receptor (bovine, UniProt P32236 1-328)
T1 construct: whole, on cells; The receptor stood in crude membrane preparations of bovine tissue homogenates, not on intact cells; also called GnRH receptor
T1 sequence (looked up): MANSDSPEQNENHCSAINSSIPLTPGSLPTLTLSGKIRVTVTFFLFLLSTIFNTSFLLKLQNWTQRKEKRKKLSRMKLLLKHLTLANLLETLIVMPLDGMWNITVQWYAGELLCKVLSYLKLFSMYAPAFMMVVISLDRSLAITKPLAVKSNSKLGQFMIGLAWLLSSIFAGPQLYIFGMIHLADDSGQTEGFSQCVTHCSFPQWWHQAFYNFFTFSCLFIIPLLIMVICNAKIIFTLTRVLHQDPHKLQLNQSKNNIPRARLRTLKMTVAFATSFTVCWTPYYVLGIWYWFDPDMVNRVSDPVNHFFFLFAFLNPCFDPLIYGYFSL
EXPERIMENT NOTES: displacement of 125I-deslorelin, bovine nasal ITP region membranes, low affinity site (IC50 II)
Description: Competition Studies: To determine the amount of unlabelled deslorelin required to displace the radioactivity, competition studies were conducted. Briefly, membranes were incubated with 100,000 cpm of I¹²⁵ deslorelin in the presence or absence of unlabelled deslorelin (0.01-3,000 ng) in a total volume of 200 μl for 4 hr at 4° C. Assays were performed in triplicates. […] Radioactivity was measured in the pellet using a Perkin-Elmer γ-counter. […]
EXPERIMENTAL READOUT: pIC50
The read-out pIC50 is expressed as -log10 of concentration in moles per litre.

Lookup result for EHWSYWLRP (pGlu at position 1; D-Trp at position 6; C-terminal ProNHEt (ethylamide), Synthetic LHRH analog, gift from Balance Pharmaceuticals; also called unlabelled deslorelin; unlabeled deslorelin) [deslorelin] ; measured pIC50: 7.48
